molecular target: full-length beta-Catenin (Uniprot ID P35222) (Homo sapiens); construct: 10 nM full-length beta-Catenin (Uniprot ID P35222); assay: Fluorescence polarization IC50 (beta-catenin / 5FAM-TCF4 10-53 competition); format: binding; conditions: read-out: beta-Catenin FP IC50
Sequence (P35222 whole entry): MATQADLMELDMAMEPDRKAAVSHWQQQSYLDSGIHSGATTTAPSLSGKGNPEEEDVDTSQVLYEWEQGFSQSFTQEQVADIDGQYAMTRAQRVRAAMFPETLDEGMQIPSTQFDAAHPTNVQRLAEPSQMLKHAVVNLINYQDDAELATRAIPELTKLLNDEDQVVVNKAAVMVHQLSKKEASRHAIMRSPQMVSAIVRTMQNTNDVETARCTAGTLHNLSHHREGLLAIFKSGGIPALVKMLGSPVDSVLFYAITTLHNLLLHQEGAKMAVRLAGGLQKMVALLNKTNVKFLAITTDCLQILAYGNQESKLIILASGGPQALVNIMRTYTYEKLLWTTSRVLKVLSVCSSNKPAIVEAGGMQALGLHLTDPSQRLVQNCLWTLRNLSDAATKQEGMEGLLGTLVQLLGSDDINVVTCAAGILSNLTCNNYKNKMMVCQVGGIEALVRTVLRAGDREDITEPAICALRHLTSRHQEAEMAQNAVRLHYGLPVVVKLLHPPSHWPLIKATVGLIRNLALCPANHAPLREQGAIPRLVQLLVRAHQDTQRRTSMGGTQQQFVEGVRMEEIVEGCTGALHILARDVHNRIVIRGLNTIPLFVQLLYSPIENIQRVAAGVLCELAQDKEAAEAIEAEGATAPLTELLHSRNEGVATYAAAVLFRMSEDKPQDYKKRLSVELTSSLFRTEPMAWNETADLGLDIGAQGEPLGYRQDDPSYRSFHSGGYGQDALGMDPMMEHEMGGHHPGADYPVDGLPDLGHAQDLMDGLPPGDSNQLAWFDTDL
Measurement label: IC50 (nM)
Give the quantity in nM, number only.

// CC(=O)N1CCC[C@]12CC=CCCCC1(CCCC=CCCCOC(=O)N3CC[C@@](C(=O)N[C@@H](Cc4ccsc4)C(=O)N[C@@H](Cc4csc5ccccc45)C(=O)N[C@@H](CCC(N)=O)C(N)=O)(C3)NC(=O)[C@H](CC(N)=O)NC(=O)[C@H](Cc3ccccc3)NC(=O)[C@H](C)NC(=O)[C@H](C)NC(=O)[C@H](CN(CC(=O)O)CC(F)(F)F)NC(=O)[C@H](CC(=O)O)NC1=O)NC(=O)[C@H](CC(C)(C)C)NC(=O)[C@H](CC(=O)O)NC2=O (stereo partly drawn) [I-761] : IC50 value = 5
